tested on: Noggin (protein binding on small-molecule microarray); test: Noggin binders on small-molecule microarray, primary screen, biochemical, 635/667 nm fluorescence (AID 1095); conditions: 635 nm fluorescence, higher = more signal;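 note: score merges 667 nm feature fluorescence with signal to noise over triplicate slides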

| Compound | composite z-score |
| --- | --- |
| CC#CCO[Si](C#CCCCCCC)(C(C)C)C(C)C | -2.8 |
| COC(=O)c1ccc([C@H](NC(=O)c2ccccc2)[C@]2(C)C[C@H]2C2CCCCC2)cc1 | -0.178 |
| O=C1O[C@H](c2ccccc2)[C@H](c2ccccc2)N2[C@H]1[C@@H](C(=O)N1CCN(c3ncccn3)CC1)[C@]1(C(=O)Nc3ccccc31)[C@H]2c1ccc(O)cc1 | 0.0775 |
| C=CCC(OC(C)=O)[C@@H]1[C@@H](N(Cc2ccc(-c3ccccc3)cc2)C(=O)c2ccc(-c3ccccc3)cc2)c2cc(OCCCO)ccc2N1C(=O)c1ccc2ccccc2n1 (some centres not stated) | 0.408 |
| CCCCCCCCCCC(O)C1C=CC2C(=O)N(C)C(=O)C2N1N1CCCCC1 (configuration not stated) | -1.9 |
| COC(=O)[C@@]1(Cc2ccc(F)cc2)[C@H]2c3cc(C(=O)N(C)C)n(CCN4CCOCC4)c3C[C@H]2CN1C(=O)c1ccccc1 | -0.539 |
| O=C1N(CCS(=O)(=O)c2ccccc2)c2ccccc2[C@@H]2OC(c3ccc(OCCCO)cc3)=N[C@]12CCS(=O)(=O)c1ccccc1 | 0.833 |
| CC(C)[C@@H](C(=O)O)n1cc(-c2ccccc2)nn1 | 0.192 |
| CCCCN1CC=CC23O[C@@H]4C=CCOC(=O)[C@@H]4[C@H]2C(=O)N(CCO)[C@@H]3C1=O (some centres not stated) | -1.45 |
| COC(=O)[C@H](Cc1ccc(O)cc1)N1CC2=CCCC=C[C@@H]2[C@H]1[C@H](O)Cc1ccccc1 | 0.191 |
| O=C1C2C=CC(C(O)c3cccc(O)c3)N(Nc3ccccc3F)C2C(=O)N1c1ccccc1 (configuration not stated) | -0.171 |
| C=CCC(OC(C)=O)[C@@H]1[C@@H](N(Cc2cccc3ccccc23)C(=O)c2cccc3ccccc23)c2cc(OCCCO)ccc2N1C(=O)Cc1ccc2ccccc2c1 (some centres not stated) | 0.0493 |

====

assay: modulators of S6 phosphorylation in cells, primary screen, cell-based, A549, cytoblot, luminescence, serum-stimulated (AID 1158); details: A549 phospho-S6 cytoblot, 5 h, higher = more signal;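 note: serum-stimulated A549 lung adenocarcinoma cells; signal is phosphorylated S6 detected by cytoblot immunostaining with HRP secondary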
# z-score per record follows

| Compound | z-score |
| --- | --- |
| CC(=O)n1cc(C(O)C2C=CC3C(=O)N(c4ccccc4)C(=O)C3N2Nc2ccccc2F)c2ccccc21 (stereo not given) | 0.988 |
| O=C1O[C@@H](c2ccccc2)[C@@H](c2ccccc2)N2[C@@H](c3ccc(OCCO)cc3)[C@]3(C(=O)Nc4ccc(C#CCCO)cc43)[C@@H](C(=O)Nc3nc4ccccc4s3)[C@H]12 | 0.922 |
| COc1ccccc1CN1C(=O)c2ccccc2[C@](Cc2ccccc2I)(C(=O)NCCCN(C)C)[C@@H]1c1ccc(CO)cc1 | -2.54 |
| COCCCNC(=O)[C@@H]1c2ccccc2C(=O)N(C2CCCCC2)[C@H]1c1ccc(CO)cc1 | 2.35 |
| NC(=O)N1C(=O)C2C(C1=O)C1C=C(CCCO)C2C(c2ccc(CN3CCCC3)cc2)N1Cc1cccc(OC(F)(F)F)c1 (stereo not given) | -0.267 |
